Tested on: CU-ACC1
Assay: area under concentration-response curve (viability) (AUC (a.u.)); higher = less active
Conditions: 48 h

LINE NOTATION: CC1(C)O[C@@H]2C[C@H]3[C@@H]4C[C@H](F)C/5=C/C(=O)/C=C\[C@]5(C)[C@@]4(F)[C@@H](O)C[C@]3(C)[C@@]2(O1)C(=O)CO
area under concentration-response curve: 485
--
LINE NOTATION: c1cc(-c2cnn3cc(-c4ccc(OCCN5CCCCC5)cc4)cnc23)ccn1
area under concentration-response curve: 404
--
LINE NOTATION: COc1ccc([S+](=O)([O-])N(C(C)=O)c2ccccc2/C=C/c2cc[n+]([O-])cc2)cc1
area under concentration-response curve: 482
--
LINE NOTATION: CCN(CC)CCNC(=O)c1c(C)[nH]c(/C=C2/C(=O)Nc3ccc(-c4csc(-c5ccccc5)n4)cc32)c1C
area under concentration-response curve: 369
--
LINE NOTATION: COc1cc2ncnc(Nc3ccc(F)c(Cl)c3)c2cc1NC(=O)/C=C/CN1CCCCC1
area under concentration-response curve: 414
--
LINE NOTATION: Cn1c2ccccc2c2c3c(c4c5ccccc5n(CCC#N)c4c21)CNC3=O
area under concentration-response curve: 401
--
LINE NOTATION: NC/1=N/C(=O)N(/C=N1)[C@@H]2O[C@H](CO)[C@@H](O)[C@H]2O
area under concentration-response curve: 469
--
LINE NOTATION: CC1=C(/C=C/C(C)=C/C=C/C(C)=C/C(=O)O)C(C)(C)CCC1
area under concentration-response curve: 503
